Quick reference for pIC50 among some molecules
- Tested on: NCI-H460
- method_notes: In vitro antiproliferative MTT assay
- Format: cell-based
- condition_summary: Homo sapiens, NCI-H460, 72 h, mean ± SD
Structures can show the parent of a compound that is named as a salt.
Lab note — pIC50 values are minus log10 of concentrations in M.

[
  {
    "molecule": "COc1cc(/C=C/C(=O)C(C)(C)C(=O)/C=C/c2ccc(OC(=O)OCCNC(=O)[C@@H](N)C(C)C)c(OC)c2)ccc1OC(=O)OCCNC(=O)[C@@H](N)C(C)C [Compound 2-TFA]",
    "experimental_target": "NCI-H460",
    "pIC50": 5.77
  },
  {
    "molecule": "COc1cc(/C=C/C(=O)C(C)(C)C(=O)/C=C/c2ccc(O)c(OC)c2)ccc1O",
    "experimental_target": "NCI-H460",
    "pIC50": 5.67
  }
]

Entry COc1cc(/C=C/C(=O)C(C)(C)C(=O)/C=C/c2ccc(OC(=O)OCCNC(=O)[C@@H](N)C(C)C)c(OC)c2)ccc1O [Compound 1-TFA] : pIC50 on NCI-H460 = 5.71

* * *

- method_notes: Water solubility by LC-MS analysis
- Format: physicochemical
- condition_summary: water, 25 °C, thermodynamic from solid; room temperature (25 ± 1 °C), LC-MS
Counter-ions that a name gives are not always drawn.
Quick reference for solubility among some compounds
Give the value, in units of mg/mL, as a plain number.

[
  {
    "compound": "COc1cc(/C=C/C(=O)C(C)(C)C(=O)/C=C/c2ccc(OC(=O)OCCNC(=O)[C@@H](N)C(C)C)c(OC)c2)ccc1OC(=O)OCCNC(=O)[C@@H](N)C(C)C [Compound 2-TFA]",
    "display_unit": "mg/mL",
    "endpoint_value": 376
  }
]

Record summary for `COc1cc(/C=C/C(=O)C(C)(C)C(=O)/C=C/c2ccc(O)c(OC)c2)ccc1O` : reported solubility = 0.018

Record summary for COc1cc(/C=C/C(=O)C(C)(C)C(=O)/C=C/c2ccc(OC(=O)OCCNC(=O)[C@@H](N)C(C)C)c(OC)c2)ccc1O [Compound 1-TFA] : reported solubility = 250
